Where do these numbers come from? They come from the supplement of paper PMC6555819.

Test system: RXRa homodimer (NR concentration 180 nM)
Experiment: PBM binding z-score (relative to random genomic background probes); higher = stronger binding; sequences stand for … in GC…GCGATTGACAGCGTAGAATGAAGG
Each item that follows carries a reported PBM binding z-score.
Reply: number alone, nothing else.

See these solved cases before continuing.
- Polymer sequence: "CCTATTAGTTGACCATAAGGGCAACCTAAGCTCG"
  PBM binding z-score: 0.949
- Polymer sequence: "CCTCAGAGGACAGAAGGTCAGAGCTGTCCGCTTT"
  PBM binding z-score: 2.1
- Polymer sequence: "AGAATGAGGTTAAGATCATGGAAACAGAATACAT"
  PBM binding z-score: 2.62
- Polymer sequence: "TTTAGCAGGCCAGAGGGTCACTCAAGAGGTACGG"
  PBM binding z-score: 2.32
- Polymer sequence: "ATATGTAGGTTAGCTGGGGTCATTCAAACTAGGC"
  PBM binding z-score: 5.57

(Q) Query for RXRa homodimer (NR concentration 180 nM): what PBM binding z-score does the record show for TAAACAGGGTCAAAGGCCAGAGTACGAATGTCGA ?
(A) 7.01

(Q) Another sequence to check: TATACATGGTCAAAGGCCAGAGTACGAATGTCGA
(A) 1.39

(Q) Do the same for GCTAGCAGGACATTTGGGTCACTCAATGACGGGC please
(A) 0.598

(Q) Now consider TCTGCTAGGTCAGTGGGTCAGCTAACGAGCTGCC .
(A) 2.23

(Q) Continue with CGAATTAGGTCAAGGACAGTGAATCTCCGCACGC
(A) 2.97

(Q) Also need ACTCGGAGGACAAAGATCAGAGCTACGCCAGTGA , thanks.
(A) 0.18

(Q) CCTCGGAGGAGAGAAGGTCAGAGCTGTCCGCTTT , same question.
(A) 1.89

----------
Entries annotated with measured PBM binding z-score
System: PPARg DBDmut IVT, anti-PPARg (DBD mutation: PPARg1 K132A/R137A, NR concentration 270 nM)
Assay: PBM binding z-score (relative to random genomic background probes); higher = stronger binding; sequences stand for … in GC…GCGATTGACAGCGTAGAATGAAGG

- Polymer sequence: "GCTCGGTGGACAAGGTCAGAGCTTTGTCCGTAGA"
  Experimental value: -0.301
- Polymer sequence: "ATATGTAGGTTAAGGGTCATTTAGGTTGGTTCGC"
  Experimental value: 3.31
- Polymer sequence: "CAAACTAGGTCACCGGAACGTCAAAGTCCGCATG"
  Experimental value: 1.58

(Q) I have this sequence here, GCTATTAGTTGAAAGGGCAACCGGATGATTCTCG , and I need its recorded PBM binding z-score.
(A) -0.308

(Q) Entry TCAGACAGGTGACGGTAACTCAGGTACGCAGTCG please
(A) 0.0566

(Q) Okay, and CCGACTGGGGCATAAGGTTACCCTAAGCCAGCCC ?
(A) -1.53

(Q) Lookup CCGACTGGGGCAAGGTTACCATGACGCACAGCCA
(A) -0.368

----------
Test system: LXRa:RXRa (NR concentration 270 nM, RXRa partner concentration 90 nM)
Test: PBM binding z-score (relative to random genomic background probes); higher = stronger binding; sequences stand for … in GC…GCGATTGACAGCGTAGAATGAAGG
Endpoint name: PBM binding z-score
I only need the number, thanks.

- Polymer sequence: "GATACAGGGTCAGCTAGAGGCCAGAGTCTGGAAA"
  PBM binding z-score: 2.79
- Polymer sequence: "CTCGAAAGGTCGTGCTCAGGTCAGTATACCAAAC"
  PBM binding z-score: 5.15
- Polymer sequence: "TAGCCTAGGTCATTAGGCCAGTATAGTACGCATC"
  PBM binding z-score: 2.91
- Polymer sequence: "GCGACTGGGGCAAAGCAGGTTACCCTAAGGTTGG"
  PBM binding z-score: 0.0738

(Q) Endpoint output: PBM binding z-score of ATATGTAGGTTAGCTGGGGTCATACAGACTAGGC . Value?
(A) 5.79

(Q) Same for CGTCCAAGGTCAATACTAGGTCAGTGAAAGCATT
(A) 5.42

----------
Measured PBM binding z-score of individual entries
System: THRa:RXRa (NR concentration 90 nM, RXRa partner concentration 90 nM)
Assay: PBM binding z-score (relative to random genomic background probes); higher = stronger binding; sequences stand for … in GC…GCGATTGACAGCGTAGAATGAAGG

- Polymer sequence: "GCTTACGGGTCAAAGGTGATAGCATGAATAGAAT"
  Test target: "THRa:RXRa (NR concentration 90 nM, RXRa partner concentration 90 nM)"
  PBM binding z-score: 3.15
- Polymer sequence: "ACTAGCAGGCCAAGTTTGGGTCATTCAAACAAAG"
  Test target: "THRa:RXRa (NR concentration 90 nM, RXRa partner concentration 90 nM)"
  PBM binding z-score: 2.55
- Polymer sequence: "AGAACGAGGCCACGCTGAGTTGATAGCAGAGTAG"
  Test target: "THRa:RXRa (NR concentration 90 nM, RXRa partner concentration 90 nM)"
  PBM binding z-score: 1.02

(Q) Consider the sequence shown here: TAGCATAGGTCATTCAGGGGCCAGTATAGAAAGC What is its recorded PBM binding z-score?
(A) 3.87

(Q) What do you get for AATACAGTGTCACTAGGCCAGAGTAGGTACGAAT ?
(A) 0.145

----------
Item-by-item account of PBM binding z-score
Test system: FXR:RXRa (NR concentration 270 nM, RXRa partner concentration 90 nM)
Experiment: PBM binding z-score (relative to random genomic background probes); higher = stronger binding; sequences stand for … in GC…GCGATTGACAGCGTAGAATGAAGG
Quick one: just the number, no unit, thanks!

Below are worked cases with known answers.
- Polymer sequence: "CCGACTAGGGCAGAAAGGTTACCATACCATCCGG"
  Experimental value: 0.259
- Polymer sequence: "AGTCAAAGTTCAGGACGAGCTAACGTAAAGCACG"
  Experimental value: 3.87
- Polymer sequence: "CTACCAAGGTGAACAAGGTCGTTGATTACTATTC"
  Experimental value: 1.47

(Q) Query (sequence): AGAATGAGGTTATTAAGATCAGGCAATTGCGGTC ; field requested: PBM binding z-score
(A) 1.46

(Q) One more sequence: GGAACGAGGGCAAGTTGCTAGCAGAGTTTGATGG
(A) 0.687

(Q) And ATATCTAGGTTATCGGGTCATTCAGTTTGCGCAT ?
(A) 3.27

(Q) Repeat for the following sequence: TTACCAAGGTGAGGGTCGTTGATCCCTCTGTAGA
(A) 1.32

(Q) Then what about the sequence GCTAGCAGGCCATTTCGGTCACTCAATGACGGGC ?
(A) -0.325

----------
The reader will find reported PBM binding z-score values listed item by item below.
System: LXRb:RXRa (NR concentration 270 nM, RXRa partner concentration 90 nM)
Experiment: PBM binding z-score (relative to random genomic background probes); higher = stronger binding; sequences stand for … in GC…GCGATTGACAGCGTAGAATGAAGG
Field format: numeric only.

- Polymer sequence: "CAAACTAGGTCACAGATGTCAAAGTCCGTGCGTA"
  Test target: "LXRb:RXRa (NR concentration 270 nM, RXRa partner concentration 90 nM)"
  PBM binding z-score: 2.81
- Polymer sequence: "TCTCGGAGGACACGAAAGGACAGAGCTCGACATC"
  Test target: "LXRb:RXRa (NR concentration 270 nM, RXRa partner concentration 90 nM)"
  PBM binding z-score: -0.358
- Polymer sequence: "ATCTCTAGGTCACCAAGTTCAGTGAATGCCGAAC"
  Test target: "LXRb:RXRa (NR concentration 270 nM, RXRa partner concentration 90 nM)"
  PBM binding z-score: 3.52
- Polymer sequence: "CGAACTAGGTAAGAACAGGACAGTGAAGGATGAT"
  Test target: "LXRb:RXRa (NR concentration 270 nM, RXRa partner concentration 90 nM)"
  PBM binding z-score: -0.602
- Polymer sequence: "ATATGTAGGTTACATCCAGGTCATTCAGGCTATG"
  Test target: "LXRb:RXRa (NR concentration 270 nM, RXRa partner concentration 90 nM)"
  PBM binding z-score: 3.08

(Q) Quick one: PBM binding z-score of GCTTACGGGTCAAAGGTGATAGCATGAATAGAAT ?
(A) 4.64

(Q) Item: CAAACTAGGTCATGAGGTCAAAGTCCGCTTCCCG
(A) 4.92

(Q) Continue with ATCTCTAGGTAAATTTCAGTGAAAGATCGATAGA
(A) 0.199

(Q) Next: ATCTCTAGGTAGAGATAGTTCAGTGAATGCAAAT
(A) -0.111

(Q) What do you get for CGTCCAAGGTCAATGCTAGGTCAGTCAAAGCATT ?
(A) 4.39

(Q) Follow-up entry: CGTCCAAGGTCAGAGAGGTCCGTGAATGCCGAGT
(A) 1.98

(Q) And for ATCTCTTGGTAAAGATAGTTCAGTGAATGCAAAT ?
(A) 0.693

(Q) Again, but for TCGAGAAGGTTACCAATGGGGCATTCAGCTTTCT
(A) 1.76

(Q) Field entry: GATACAGGGTCAAGGCCAGAGCACGCGTATTGAT
(A) 3.67

(Q) Consider next the sequence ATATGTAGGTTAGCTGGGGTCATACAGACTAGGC in the same way.
(A) 4.74

(Q) Moving on to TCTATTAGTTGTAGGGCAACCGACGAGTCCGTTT
(A) 0.268

(Q) How about this sequence: ACTAGCAGGACAAGGGTCACTCAAGATTAGTCCG
(A) 2.76
